Reference source: PubChem BioAssay (NCI)

Quick list: TGI per entry.
# System: LXFL 529 NSCLC
# assay remarks: NCI tumour cell line growth inhibition, 48 h
Expressed in µM, but write only the number.

| smiles repr | tgt | TGI / µM |
| --- | --- | --- |
| Cc1c(C(=O)/C=C/C=C/c2ccccc2)[n+](=O)c2ccccc2n1[O-] | LXFL 529 NSCLC | 51.2 |

Per the records, this molecule ( COc1ccc2nc3c(c(NCCCN(C)C)c2c1)CCCC3 ) has TGI equal to 28.7

* * *

Quick list: TGI per entry.
# Tested on: DLD-1 colon
# assay remarks: NCI tumour cell line growth inhibition, 48 h

Check out these entries, answers already filled in.
| compound | TGI |
| --- | --- |
| CCOC(=O)C(C)Sc1nnc(COc2ccccc2OC)n1-c1ccccc1 (stereo not given) | > 100 µM |
| CSc1nc(NC2OC(COC(C)=O)C(OC(C)=O)C(OC(C)=O)C2OC(C)=O)c(N=C(C)C(C)=O)c(=O)[nH]1 (stereo not given) | > 100 µM |
| CC(=O)NNc1nc(C)c(C(=O)NNC(=O)C(=O)Nc2cccc(C(C)=O)c2)s1 | 98.9 µM |

Per the records, this compound ( Cc1ccc(N(O)C(C)(C)C)cc1 ) has TGI equal to > 100 µM

Per the records, this compound ( C[S+](C)CC1OC(n2cnc3c(N)ncnc32)C(O)C1O (stereo not given) ) has TGI equal to > 225 µM

Per the records, this compound ( Cc1c(C(=O)/C=C/C=C/c2ccccc2)[n+](=O)c2ccccc2n1[O-] ) has TGI equal to 29 µM

Per the records, this compound ( COC(=O)C1=C(CS(=O)c2ccc([N+](=O)[O-])cc2[N+](=O)[O-])C2C=CC1C2 (stereo not given) ) has TGI equal to 37.6 µM

Per the records, this compound ( COc1ccc(OC(C(=O)O)C(C)C)c2c1CCCC2=O (stereo not given) ) has TGI equal to > 100 µM

Per the records, this compound ( C[Si](C)(C)C(CCCCSc1ccccc1)(Sc1ccccc1)Sc1ccccc1 ) has TGI equal to > 100 µM

Per the records, this compound ( COc1ccc2c(c1)OCCc1cn[nH]c1-2 ) has TGI equal to > 100 µM

* * *

Quick list: TGI per entry.
# Test system: SK-MEL-2 melanoma
# assay remarks: NCI tumour cell line growth inhibition, 48 h
Where a SMILES comes first, the peptide text is derived from it. [ ]: non-standard residue; d: D form. The star is where a group is joined. Bn2Val = CC(C)[C@@H](C(=O)*)N(Cc1ccccc1)Cc1ccccc1; NMeV = CN[C@H](C(=O)O)C(C)C; X29 = COc1ccc(CN*)c(OC)c1; dNMeA = CN[C@H](C)C(=O)O
Expressed in µM, but write only the number.

Check out these entries, answers already filled in.
| molecule | measurement units | TGI |
| --- | --- | --- |
| COc1ccc(CNC(=O)[C@@H]2CCCN2C(=O)[C@@H](C)N(C)C(=O)[C@H](C(C)C)N(C)C(=O)[C@@H](NC(=O)[C@H](C(C)C)N(Cc2ccccc2)Cc2ccccc2)C(C)C)c(OC)c1 (Bn2Val-V[NMeV][dNMeA]P-X29) | µM | 3.45 |
| CCCCCN(CCCCC)CC(O)c1cc(Cl)ccc1OC (stereo not given) | µM | 14.2 |
| COc1ccc2nc3c(c(NCCCN(C)C)c2c1)CCCC3 | µM | 37.1 |
| CN(Cc1ccc(C(F)(F)F)cc1)CC(O)C(=O)Nc1ccc(Cl)cc1 (stereo not given) | µM | 3.62 |
| N#C/C(=C\c1ccc([N+](=O)[O-])s1)c1nc2cc(Cl)ccc2s1 | µM | 3.7 |
| CSc1ncc(Br)c(Sc2nc(N)nc3nc[nH]c23)n1 | µM | 7.33 |
| Cc1nc2n(c1/C=C1/C(=O)Nc3ccccc31)CCS2 | µM | 26.2 |

Per the records, this molecule ( CCCc1c(C(=O)OCC)[nH]c(-c2ccc(-c3[nH]c(C(=O)OCC)c(CCC)c3C(=O)OCC)s2)c1C(=O)OCC ) has TGI equal to 57.2
